The reported numbers originate from paper PMC3037272.

Target: 26S proteasome β2 subunit (Oryctolagus cuniculus)
Sequence (G1SWK8 1-271): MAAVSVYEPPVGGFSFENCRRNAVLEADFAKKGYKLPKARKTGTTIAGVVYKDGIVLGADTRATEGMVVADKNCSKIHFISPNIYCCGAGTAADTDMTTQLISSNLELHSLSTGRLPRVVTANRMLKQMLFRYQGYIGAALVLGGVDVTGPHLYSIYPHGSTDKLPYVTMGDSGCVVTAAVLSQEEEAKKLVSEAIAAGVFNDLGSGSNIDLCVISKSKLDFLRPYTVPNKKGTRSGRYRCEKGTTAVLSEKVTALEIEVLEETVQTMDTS
ASSAY_ENDPOINT: IC50 (µM)
// return numeric value only (unit: µM, not printed)

Which IC50 is listed for CC(C)C[C@H](NC(=O)[C@H](Cc1cc(C(F)(F)F)cc(C(F)(F)F)c1)NC(=O)c1cnccn1)B1OC2C[C@@H]3C[C@@H](C3(C)C)[C@]2(C)O1 (some centres unmarked) [2b] ? 11

----------
Target: 26S proteasome β1 subunit (Oryctolagus cuniculus)
Sequence (A0A5F9DQW2 1-212): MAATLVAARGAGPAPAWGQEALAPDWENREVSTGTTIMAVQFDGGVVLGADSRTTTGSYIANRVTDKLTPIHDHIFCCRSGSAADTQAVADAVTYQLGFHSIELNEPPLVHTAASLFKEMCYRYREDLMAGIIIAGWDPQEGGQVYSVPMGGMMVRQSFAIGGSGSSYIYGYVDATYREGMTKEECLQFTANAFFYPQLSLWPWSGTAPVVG
pIC50: −log10 of the molar value.
ASSAY_ENDPOINT: pIC50

INSERT INTO results (molecule, assay_endpoint, result) VALUES
  ('CC(C)C[C@H](NC(=O)[C@H](Cc1ccccc1)NC(=O)[C@H](Cc1ccccc1)NC(=O)[C@H](Cc1ccccc1)N=[N+]=[N-])C(=O)[C@@]1(C)CO1', 'pIC50', '< 4.82'),
  ('CC(C)C[C@H](NC(=O)[C@H](Cc1ccccc1)NC(=O)[C@H](Cc1c(F)c(F)c(F)c(F)c1F)NC(=O)[C@H](Cc1ccccc1)N=[N+]=[N-])C(=O)[C@@]1(C)CO1', 'pIC50', '< 4.82'),
  ('CC(C)C[C@H](NC(=O)[C@H](Cc1ccccc1)NC(=O)[C@H](Cc1cc(C(F)(F)F)cc(C(F)(F)F)c1)NC(=O)[C@H](Cc1ccccc1)N=[N+]=[N-])C(=O)[C@@]1(C)CO1', 'pIC50', '< 4.82'),
  ('CC(C)C[C@H](NC(=O)[C@H](Cc1cc(C(F)(F)F)cc(C(F)(F)F)c1)NC(=O)c1cnccn1)B1OC2C[C@@H]3C[C@@H](C3(C)C)[C@]2(C)O1 (some centres unmarked)', 'pIC50', 6.80),
  ('CC1=CC(C)=[N+]2C1=C(CCCCc1cn([C@@H](Cc3ccccc3)C(=O)N[C@@H](Cc3ccccc3)C(=O)N[C@@H](Cc3c(F)c(F)c(F)c(F)c3F)C(=O)N[C@@H](CC(C)C)C(=O)[C@@]3(C)CO3)nn1)c1c(C)cc(C)n1[B-]2(F)F', 'pIC50', '< 5.00');

Could you share what pIC50 was measured for `CC(C)C[C@H](NC(=O)[C@H](Cc1c(F)c(F)c(F)c(F)c1F)NC(=O)[C@H](Cc1ccccc1)NC(=O)[C@H](Cc1ccccc1)N=[N+]=[N-])C(=O)[C@@]1(C)CO1` , tested on 26S proteasome β1 subunit (Oryctolagus cuniculus)? < 4.82

Could you share what pIC50 was measured for CC(C)C[C@H](NC(=O)[C@H](Cc1c(F)c(F)c(F)c(F)c1F)NC(=O)c1cnccn1)B1OC2C[C@@H]3C[C@@H](C3(C)C)[C@]2(C)O1 (some centres unmarked) , tested on 26S proteasome β1 subunit (Oryctolagus cuniculus)? 6.36

Could you share what pIC50 was measured for `CC(C)C[C@H](NC(=O)[C@H](Cc1cc(C(F)(F)F)cc(C(F)(F)F)c1)NC(=O)[C@H](Cc1ccccc1)NC(=O)[C@H](Cc1ccccc1)N=[N+]=[N-])C(=O)[C@@]1(C)CO1` , tested on 26S proteasome β1 subunit (Oryctolagus cuniculus)? < 4.82
